- targetOrSystem: IDH1 R132C (Homo sapiens, UniProt O75874, R132C)
- Sequence (O75874 whole entry R132C): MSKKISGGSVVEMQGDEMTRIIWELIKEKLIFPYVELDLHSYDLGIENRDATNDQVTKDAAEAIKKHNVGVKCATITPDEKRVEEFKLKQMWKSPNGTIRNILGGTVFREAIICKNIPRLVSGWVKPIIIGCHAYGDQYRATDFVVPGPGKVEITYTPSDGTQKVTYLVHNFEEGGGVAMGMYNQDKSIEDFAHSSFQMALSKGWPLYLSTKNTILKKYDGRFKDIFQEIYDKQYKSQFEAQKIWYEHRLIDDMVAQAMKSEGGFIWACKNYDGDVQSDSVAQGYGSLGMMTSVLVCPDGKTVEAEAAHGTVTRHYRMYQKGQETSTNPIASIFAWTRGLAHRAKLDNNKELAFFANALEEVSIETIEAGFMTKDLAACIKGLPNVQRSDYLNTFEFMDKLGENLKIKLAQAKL
- procedureDetails: IDH1 R132C enzymatic assay (NADPH depletion coupled to diaphorase/resazurin)
- Type: biochemical
- measurementContext: enzymatic inhibition, IDH1 R132C
endpoint: IC50

INPUT: What value of measured IC50 is listed for CC(C)=Cc1c(C(=O)N2CCNCC2)cc(-c2nc(-c3ccc(Cl)cc3)cs2)c(=O)n1-c1c(F)cccc1OC(C)C ?
OUTPUT: < 300 nM

INPUT: // IC50 lookup, key: CCOc1ncc(F)cc1-n1c(C=C(C)C)c(C(=O)N2CCNCC2)cc(-c2nc(-c3ccc(C(F)F)cn3)cs2)c1=O
OUTPUT: 1000 to 5000 nM

INPUT: Request the reported IC50 associated with CCOC(=O)c1ncsc1-n1c2c(cc(-c3nc(-c4ccc(Cl)cc4)cs3)c1=O)C(=O)CC(C)(C)C2
OUTPUT: 1000 to 5000 nM

INPUT: Which IC50 value is on record for CCc1ccc(Cl)cc1-n1c(C=C(C)C)c(C(=O)N2CCNCC2)cc(-c2nc(-c3ccc(C(F)(F)F)cc3)cs2)c1=O ?
OUTPUT: < 300 nM

INPUT: Query: IC50; subject: CCc1cccc(CC)c1-n1c(C=C(C)C)c(C(=O)N(C)C2CCNCC2)cc(-c2nc(-c3ccc(Cl)cc3)cs2)c1=O
OUTPUT: < 300 nM

INPUT: // IC50 lookup, key: CCc1cccc(CC)c1-n1c(C=C(C)C)c(C(=O)N2CCNCC2)cc(-c2nc(-c3ccc(C(F)(F)F)cn3)cs2)c1=O
OUTPUT: < 300 nM

---

- targetOrSystem: IDH1 R132H (Homo sapiens, UniProt O75874, R132H)
- Sequence (O75874 whole entry R132H): as the sequence (O75874 whole entry R132C) above, with C132H counted along it
- procedureDetails: IDH1 R132H enzymatic assay (NADPH depletion coupled to diaphorase/resazurin)
- Format: biochemical
- measurementContext: IDH1 R132H enzymatic inhibition, IC50 class
pIC50: −log10 of the molar value.
endpoint: pIC50

INPUT: Given the molecule CCc1cccc(CC)c1-n1c(CC(C)C)c(C(=O)N2CC(=O)N[C@@H](C(=O)O)C2)cc(-c2nc(-c3ccc(Cl)cc3)cs2)c1=O , what is its reported pIC50?
OUTPUT: 6.00 to 6.52

INPUT: Entry under review: CCOc1ncc(C)cc1-n1c(C=C(C)C)c(C(=O)N2CCNCC2)cc(-c2nc(-c3ccc(C(F)(F)F)nc3)cs2)c1=O . Reported pIC50?
OUTPUT: > 6.52

INPUT: May I ask what pIC50 has been recorded for CCc1cccc(CC)c1-n1c(C)c(C(=O)N(C)CCCNC)cc(-c2nc(-c3ccc(Cl)cc3)cs2)c1=O ?
OUTPUT: 4.70 to 5.30

INPUT: For CC1(C)CC(=O)c2cc(-c3nc(-c4ccc(Cl)cc4)cs3)c(=O)n(-c3ccccn3)c2C1 , what is its reported pIC50?
OUTPUT: 4.70 to 5.30

INPUT: Looking for the measured pIC50 of CCc1cccc(CC)c1-n1c(C)c(C(=O)NC2CCCC(O)C2)cc(-c2nc(-c3ccc(Cl)cc3)cs2)c1=O (centres unmarked) , can you help?
OUTPUT: 4.70 to 5.30

INPUT: Item under review: CCc1cccc(CC)c1-n1c(C)c(C(=O)N2CCCC2C(=O)O)cc(-c2nc(-c3ccc(Cl)cc3)cs2)c1=O (centres unmarked) . Reported pIC50?
OUTPUT: 5.30 to 6.00

INPUT: Returns the measured pIC50 for the input molecule. Input: CCc1ccc(Cl)c(CC)c1-n1c(C=C(C)C)c(C(=O)N2CCNCC2)cc(-c2nc(-c3ccc(Cl)cc3)cs2)c1=O
OUTPUT: > 6.52

INPUT: Entry COc1ccc(OC)c(-n2c3c(cc(-c4cc(-c5ccccc5)[nH]n4)c2=O)C(=O)CC(C)(C)C3)c1 has what pIC50?
OUTPUT: < 4.70

INPUT: Need pIC50 of O=c1[nH]cccc1-c1nc(-c2ccc(Cl)cc2)cs1 , thanks.
OUTPUT: < 4.70

INPUT: Look up pIC50: COc1ccccc1Cn1c2c(cc(-c3nc(-c4ccc(Cl)cc4)cs3)c1=O)C(=O)CC(C)(C)C2
OUTPUT: 5.30 to 6.00

INPUT: Consider the molecule CCc1cccc(CC)c1-n1c(CC(C)C)c(C(=O)N2CCNCC2)cc(-c2nc(-c3ccccc3)c(C)s2)c1=O and give its measured pIC50.
OUTPUT: > 6.52

INPUT: Form field: reported pIC50 of CCc1cccc(CC)c1-n1c2c(cc(-c3nc(-c4ccccn4)cs3)c1=O)C(=O)CC(C)(C)C2
OUTPUT: 4.70 to 5.30

INPUT: Please give the measured pIC50 for this molecule: CCc1cccc(CC)c1-n1c(CC(C)C)c(C(=O)N[C@@H]2CCC[C@@H]2O)cc(-c2nc(-c3ccc(Cl)cc3)cs2)c1=O
OUTPUT: 6.00 to 6.52

INPUT: GET /values?readout=pIC50&item= CCc1cccc(CC)c1-n1c(C)c(C(=O)NC2CCOCC2)cc(-c2nc(-c3ccc(Cl)cc3)cs2)c1=O
OUTPUT: 5.30 to 6.00

INPUT: Need pIC50 of CCc1cccc(CC)c1-n1c(C=C(C)C)c(C(=O)N2CCNC(CCO)C2)cc(-c2nc(-c3ccc(Cl)cc3)cs2)c1=O (centres unmarked) , thanks.
OUTPUT: > 6.52

INPUT: Given CCc1cccc(CC)c1-n1c(CC(C)C)c(C(=O)NC[C@@H](NC(C)=O)C(=O)O)cc(-c2nc(-c3ccc(Cl)cc3)cs2)c1=O , state its recorded pIC50.
OUTPUT: 5.30 to 6.00

INPUT: // lookup pIC50 for CCc1cccc(CC)c1-n1c(CC2CCNC2)c(C(=O)N2CCNCC2)cc(-c2nc(-c3ccc(Cl)cc3)cs2)c1=O (centres unmarked)
OUTPUT: 4.70 to 5.30

INPUT: Query (molecule): CCc1cccc(CC)c1-n1c(C)c(C(=O)NC(C)(C)C)cc(-c2nc(-c3ccc(Cl)cc3)cs2)c1=O ; field requested: pIC50
OUTPUT: 4.70 to 5.30

INPUT: Tell me the measured pIC50 of CCc1cccc(CC)c1-n1c(CC(C)C)c(C(=O)N2CCNCC2)cc(-c2nc(-c3ccc(C(F)(F)F)cc3)c(C)s2)c1=O , please.
OUTPUT: 6.00 to 6.52

INPUT: # lookup: pIC50 of CCc1cccc(CC)c1-n1c(CC(C)C)c(C(=O)N2CCN[C@H](C(=O)OC)C2)cc(-c2nc(-c3ccc(Cl)cc3)cs2)c1=O
OUTPUT: 5.30 to 6.00
